Reference for the values: patent US20090118135A1

target: GST-Bfl-1 (Homo sapiens, UniProt Q16548); construct: lacking their C-terminal transmembrane domains (about the last 20 amino acids) (“ΔTM”); made in house; host or cells: XL-1 Blue E. coli, pGEX 4T-1; experiment: Bfl-1/FITC-Bid BH3 competitive fluorescence polarization assay; assay type: binding; conditions: primary HTS hits, MLSCN library (PubChem SIDs), Table 5B
Sequence (Q16548 1-155 limits assumed): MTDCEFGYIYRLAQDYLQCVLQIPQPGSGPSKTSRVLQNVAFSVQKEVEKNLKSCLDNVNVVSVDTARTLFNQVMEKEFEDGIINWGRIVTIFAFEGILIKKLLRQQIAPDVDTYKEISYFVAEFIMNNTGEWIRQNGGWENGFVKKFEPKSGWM
Entries and their % Activity
metric: % Activity (%)

- COc1ccc2c(c1)c(=O)oc1cc(OCC(=O)N3CCc4ccccc4C3)ccc12: 59.7
- Cc1ccc(-n2nc3ccc(NC(=O)c4ccc5c(c4)OCO5)cc3n2)cc1: 69.5
- CCOc1ccc(C(=O)OCC(=O)NCc2ccco2)cc1OCC: 71.4
- Cc1ccc(S(=O)(=O)NC(=O)c2cc(C)n(CCCn3ccnc3)c2C)cc1: 61.5
- O=[N+]([O-])c1cc(-c2ccc(/C=N/c3nc4ccccn4c3-c3ccco3)o2)ccc1Cl: 60.5
